target: Cytochrome P450 3A4 (Homo sapiens); assay: qHTS Assay for Inhibitors and Substrates of Cytochrome P450 3A4 (AID 884); conditions: recombinant CYP3A4, Luciferin-PPXE luminescence; series mostly up to 57.1 µM; also: nearly all actives have a fitted effect of over 50% in size
Inconclusive results are not listed. Activity calls are given as the source filed them. Calls follow the shape of the dose curve; as a rule, active = well fitted inhibition curve with a large enough effect; inconclusive = small, poorly fitted or top-dose-only effect; inactive = no such curve, though single readings can be large or run the other way.
Classes used: active, inactive

* COC(=O)COc1cc(Cl)c(Cl)cc1Cl | inactive
* CNC(=O)O/N=C/C(C)(C)SC | inactive
* CNC(=O)CSP(=S)(OC)OC | inactive
* O=C=NC1CCCCC1 | inactive
* CCNc1nc(Cl)nc(NC(C)C)n1 | inactive
* COc1ccc(/C=C/c2cc(O)cc(O)c2)cc1 | inactive
* C/C=C(/C)C(=O)OC1CC[C@]2(C)C3CCC4[C@]5(O)CC(O)[C@]6(O)C(CN7CC(C)CCC7[C@]6(C)O)[C@]5(O)C[C@@]42O[C@]13O (stereo partly drawn) | inactive
* C=C1C2CCC3[C@@](CC[C@@H]4C(C(=O)O)CC(OC5OC(CO)C(OS(=O)(=O)O)C(OS(=O)(=O)O)C5OC(=O)CC(C)C)C[C@]34C)(C2)C1O (stereo partly drawn) | inactive
* COc1cc2c(cc1OC)C(C)NCC2 (stereo not drawn) | inactive
* CCC(C)C(=O)OC1C(O)C2C(CN3CC(C)CCC3[C@]2(C)O)C2C[C@]34O[C@@]5(O)C(OC(=O)C(C)(O)CC)CCC3(C)C5C(OC(C)=O)C(OC(C)=O)C4[C@@]21O (stereo partly drawn) | inactive
* NC(CO)Cc1ccccc1 (stereo not drawn) | inactive
* CNC(C)[C@@H](O)c1ccccc1 (stereo partly drawn) | inactive
* ClC1=C(Cl)C2(Cl)C3C4C=CC(C4)C3C1(Cl)C2(Cl)Cl (stereo not drawn) | active
* COc1cc2c3cc1Oc1c(OC)c(OC)cc4c1C(Cc1cccc(c1)Oc1ccc(c(O)c1)CC3N(C)CC2)N(C)CC4 (stereo not drawn) | inactive
* CCOCN(C(=O)CCl)c1c(C)cccc1CC | inactive
* Cc1c(O)c(O)cc2c1CC=C1[C@]3(C)CC[C@]4(C)CC[C@@](C)(C(=O)O)CC4[C@]3(C)CC[C@]12C (stereo partly drawn) | inactive
* OCC(Br)CBr (stereo not drawn) | inactive
* Cc1ccccc1-c1cncnc1NCCc1cnc[nH]1 | active
* CN1CCc2cc3c(cc2[C@@H]1[C@@H]1OC(=O)c2c1ccc1c2OCO1)OCO3 | active
* c1cc2c(cc1C1OC[C@@H]3C(c4ccc5c(c4)OCO5)OCC13)OCO2 (stereo partly drawn) | active
* CNC(=O)Oc1cccc2c1OC(C)(C)C2 | inactive
* CNC(C)C(O)c1ccccc1 (stereo not drawn) | inactive
* COC1=CC2C3Cc4ccc(OC)c(O)c4[C@]2(CCN3C)CC1=O (stereo partly drawn) | inactive

----------
assay: Vero-766 cells viability qHTS against the NCATS CANVASS Library: Counterscreen for Zika virus inhibition assay (AID 1347394); details: Vero 766 viability, CellTiter-Glo luminescence, 72 h; series mostly up to 46.1 µM; also: nearly all actives have a fitted effect of over 60% in size
Records with an inconclusive call do not appear. Calls of active or inactive are those of the source. The call rests on the fitted dose curve; in most records, active means well fitted cell-killing curve with a large enough effect; inconclusive means small, poorly fitted or top-dose-only effect; inactive means flat fitted curve, though single readings scatter. Starred links: 1 amine or outer side, 2 acyl side, 3 side chain; linkers in the order of their positions; H or OH if unused. Positions of bridges follow the written chain, without caps; N, C: chain ends. Non-standard residues stand in square brackets, D forms with d. Residues, ends and D or L forms follow the SMILES beside them. ξ: configuration not given here. *: point of attachment. X3 = C[C@@H](Oc1ccc([C@H](N[*:1])C(=O)[*:2])cc1)[C@]1(/C=C\C(=O)[*:3])CO1; d(aIle) = CC[C@H](C)[C@@H](N)C(=O)O; X2 = CC(C)[C@@H](O)C(C)C(=O)*; ξNMeF = CNC(Cc1ccccc1)C(=O)O; ξT = CC(O)C(N)C(=O)O; ξS = NC(CO)C(=O)O
MEASUREMENT_TYPE: outcome

- CCCCC1CC[C@H]2CCCC(CCC)N12 (stereo partly drawn): inactive
- CC[C@H](C)[C@H]1NC(=O)[C@@H](NC(=O)C(C)[C@H](O)C(C)C)[C@@H](C)OC(=O)C2COC(=O)CNC(=O)/C=C\[C@]3(CO3)[C@@H](C)Oc3ccc(cc3)[C@H](NC1=O)C(=O)N(C)C(Cc1ccccc1)C(=O)NC(C(C)O)C(=O)N2 (stereo partly drawn) (X2-T[d(aIle)][X3][ξNMeF][ξT][ξS]; ester 1-C; linker 3-6 via G): inactive
- C[N+](C)(C)CCc1c[nH]c2ccccc12: inactive
